study target: c-Cbl (Homo sapiens (Human))
Sequence (P22681 47-435): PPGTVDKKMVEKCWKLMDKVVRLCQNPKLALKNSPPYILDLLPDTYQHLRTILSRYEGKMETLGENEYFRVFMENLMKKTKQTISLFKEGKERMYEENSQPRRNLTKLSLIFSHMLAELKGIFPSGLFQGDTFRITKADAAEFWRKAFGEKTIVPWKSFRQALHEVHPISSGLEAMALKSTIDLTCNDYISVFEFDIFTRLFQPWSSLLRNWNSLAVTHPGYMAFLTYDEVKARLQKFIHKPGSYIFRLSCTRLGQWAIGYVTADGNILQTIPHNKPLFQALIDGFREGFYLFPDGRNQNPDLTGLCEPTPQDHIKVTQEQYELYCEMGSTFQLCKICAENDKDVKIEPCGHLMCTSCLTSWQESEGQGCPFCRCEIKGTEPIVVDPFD
assay method text: C-Cbl LCK Ub TR-FRET assay (c-cbl Lck HTRF)
Type: biochemical
run parameters: C-cbl Lck HTRF IC50 relative to Cbl-b Lck HTRF IC50
property measured: (fold-selectivity) (x)
Your answer should be a plain number; it is taken to be in x.

# annotated cases, reported (fold-selectivity) shown
> print(dat)
                                   molecule  quantitative.readout
1  Cn1cnnc1[C@@H](F)C1(c2cccc(N3Cc4c(cc(CN5CC(C)(O)C5)cc4C(F)(F)F)C3=O)c2)CC1 (single isomer, unassigned) [Compound 29]                   1.8
2  CC(C)[C@H]1CN(Cc2cc3c(c(C(F)(F)F)c2)CN(c2cccc(C4([C@@H](F)c5nncn5C)COC4)c2)C3=O)CCN1 [Compound 90]                   1.4

# evaluate next
Req: Field request: (fold-selectivity) | item: CC(C)Oc1cccc2c1CN(c1cccc(C3([C@@H](F)c4nncn4C)COC3)c1)C2=O [Compound 207]
Resp: 2.8

----------
# Lookup of reported (fold-selectivity) keyed by entry
study target: c-Cbl (Homo sapiens (Human))
assay method text: C-Cbl LCK Ub TR-FRET assay (c-cbl Lck HTRF)
Format: biochemical
run parameters: C-cbl Lck HTRF IC50 relative to Cbl-b Lck HTRF IC50

> print(dat)
                                        smi  result
1  Cn1cnnc1[C@H](F)C1(c2cccc(N3Cc4c(cc(CN5CC6(CCC6)C5)cc4C(F)(F)F)C3=O)c2)COC1    2.1x

# evaluate next
Req: Field request: (fold-selectivity) | item: CC(C)[C@H]1CNCCN1Cc1cc2c(c(C(F)(F)F)c1)CN(c1cccc(C3(Cc4nncn4C)CC(F)(F)C3)c1)C2=O
Resp: 1.1x

----------
# Lookup of reported IC50 keyed by entry
study target: c-Cbl (Homo sapiens (Human))
assay method text: C-Cbl LCK Ub TR-FRET assay (c-cbl Lck HTRF)
Type: biochemical
Counter-ions that a name gives are not always drawn.
Your answer should be a plain number; it is taken to be in nM.

# annotated cases, reported IC50 shown
> print(dat)
                                   molecule  property.measured  quantitative.readout
1  CC1CC(C)(NCc2cc3c(c(C(F)(F)F)c2)CN(c2cccc(C4(Cc5nncn5C)CC(F)(F)C4)c2)C3=O)C1 (stereo not drawn) [Compound 353, formate]               IC50                   6.6
2  CC(C)Cc1cc(C2(Cc3nncn3C)CCC2)cc(N2Cc3c(cc(CNC4(C)CCC4)cc3C(F)(F)F)C2=O)n1 [Compound 342, formate]               IC50                   7.9
3  Cn1cnnc1C(F)(F)C1(c2cccc(N3Cc4c(cccc4C(F)(F)F)C3=O)c2)CC1               IC50                  2800

Req: Field request: IC50 | item: CC1CCN(CCNc2cc(C3(Cc4nncn4C)CCC3)cc(N3Cc4c(cc(CNC5(C)CCC5)cc4C(F)(F)F)C3=O)n2)CC1 [Compound 309, formate]
Resp: 520

Req: Field request: IC50 | item: Cn1cnnc1CC1(c2cccc(N3Cc4c(cc(CN5CCNC[C@H]5C5CC5)cc4C(F)(F)F)C3=O)c2)CC(F)(F)C1
Resp: 32

Req: Field request: IC50 | item: Cn1cnnc1CC1(c2cc(NCC(F)(F)CO)nc(N3Cc4c(cc(CNC5(C)CCC5)cc4C(F)(F)F)C3=O)c2)CCC1
Resp: 27

----------
study target: UniProtKB P22681
assay method text: C-Cbl LCK Ub TR-FRET assay (c-cbl Lck HTRF)
Format: biochemical
run parameters: C-cbl Lck HTRF IC50 relative to Cbl-b Lck HTRF IC50
property measured: (fold-selectivity)

Req: Field request: (fold-selectivity) | item: Cn1cnnc1[C@@H](F)C1(c2cccc(N3Cc4c(cc(CN5CCC56COC6)cc4C(F)(F)F)C3=O)c2)COC1
Resp: 3.5x

----------
study target: c-Cbl (Homo sapiens (Human))
assay method text: C-Cbl LCK Ub TR-FRET assay (c-cbl Lck HTRF)
Assay type: biochemical
Where a name gives a salt, the structure may show the parent alone.
property measured: IC50 (nM)
Your answer should be a plain number; it is taken to be in nM.

# annotated cases, reported IC50 shown
> print(dat)
                                   molecule                  study.target  quantitative.readout
1  CC(C)[C@H]1CN(C)CCN1Cc1cc2c(c(C(F)(F)F)c1)CN(c1cccc(C3(C(F)(F)c4nncn4C)CC(F)(F)C3)c1)C2=O [Compound 432]  c-Cbl (Homo sapiens (Human))                    13
2  CCNc1cc(C2(Cc3nncn3C)COC2)cc(N2Cc3c(cc(CN4CCN(C)C[C@@H]4C(C)C)cc3C(F)(F)F)C2=O)n1 [Compound 291]  c-Cbl (Homo sapiens (Human))                   8.2
3  Cn1cnnc1[C@@H](F)C1(c2cccc(N3Cc4c(cc(CN5CC6(C5)CS(=O)(=O)C6)cc4C(F)(F)F)C3=O)c2)COC1 [Compound 182]  c-Cbl (Homo sapiens (Human))                   430
4  C=CC(=O)Nc1cc(C2(Cc3nncn3C)CCC2)cc(N2Cc3c(cc(CN4CCN(C)C[C@@H]4C(C)C)cc3C(F)(F)F)C2=O)n1 [Compound 239]  c-Cbl (Homo sapiens (Human))                    48
5  Cn1cnnc1[C@H](F)C1(c2cccc(N3Cc4c(cc(CNCCCF)cc4C(F)(F)F)C3=O)c2)COC1 [Compound 231]  c-Cbl (Homo sapiens (Human))                    81

Req: Field request: IC50 | item: COCC1(O)CN(Cc2cc3c(c(C(F)(F)F)c2)CN(c2cccc(C4([C@@H](F)c5nncn5C)COC4)c2)C3=O)C1 [Compound 185]
Resp: 110

Req: Field request: IC50 | item: Cn1cnnc1CC1(c2cccc(N3Cc4c(cc(CNC(C)(C)CF)cc4C(F)(F)F)C3=O)c2)CC(F)(F)C1 [Compound 372]
Resp: 34

Req: Field request: IC50 | item: Cn1cnnc1[C@H](F)C1(c2cccc(N3Cc4c(cc(CN5CC(CCO)C5)cc4C(F)(F)F)C3=O)c2)COC1 [Compound 177]
Resp: 91

Req: Field request: IC50 | item: Cn1cnnc1CC1(c2cccc(N3Cc4c(cc(CNC56CC(C)(C5)C6)cc4C(F)(F)F)C3=O)c2)CC(F)(F)C1 [Compound 354, formate]
Resp: 7

Req: Field request: IC50 | item: Cn1cnnc1C(F)(F)C1(c2cccc(N3Cc4c(cc(CNC5(C)CCC5)cc4C(F)(F)F)C3=O)c2)CCC1 [Compound 235]
Resp: 21

Req: Field request: IC50 | item: CC(C)[C@H]1CNCCN1Cc1cc2c(c(C(F)(F)F)c1)CN(c1cccc(C3([C@@H](F)c4nncn4C)CCC3)c1)C2=O [Compound 216]
Resp: 4.8

Req: Field request: IC50 | item: Cn1cnnc1[C@H](F)C1(c2cccc(N3Cc4c(cc([C@@H](N)CC5CC5)cc4C(F)(F)F)C3=O)c2)COC1 [Compound 389]
Resp: 14

----------
# Lookup of reported IC50 keyed by entry
study target: Cbl-b (Homo sapiens (Human), UniProt Q13191)
Sequence (Q13191 40-426): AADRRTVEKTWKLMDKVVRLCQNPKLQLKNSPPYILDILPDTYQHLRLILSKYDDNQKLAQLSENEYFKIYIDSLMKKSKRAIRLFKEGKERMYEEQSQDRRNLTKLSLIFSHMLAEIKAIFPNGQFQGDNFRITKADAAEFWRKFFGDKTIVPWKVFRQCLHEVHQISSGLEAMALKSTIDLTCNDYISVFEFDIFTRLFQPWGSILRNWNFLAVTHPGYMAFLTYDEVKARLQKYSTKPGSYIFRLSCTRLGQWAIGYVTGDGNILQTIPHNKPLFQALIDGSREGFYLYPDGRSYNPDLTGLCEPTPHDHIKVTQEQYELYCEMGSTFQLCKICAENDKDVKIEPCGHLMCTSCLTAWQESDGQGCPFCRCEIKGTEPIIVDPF
assay method text: Cbl-b LCK Ub TR-FRET assay (Cbl-b Lck HTRF)
Format: biochemical
Your answer should be a plain number; it is taken to be in nM.

> print(dat)
                                   molecule  property.measured  quantitative.readout
1  COCC1(O)CN(Cc2cc3c(c(C(F)(F)F)c2)CN(c2cccc(C4([C@H](F)c5nncn5C)COC4)c2)C3=O)C1 [Compound 186]               IC50                   110
2  CC(C)[C@H]1CN(C)CCN1Cc1cc2c(c(C(F)(F)F)c1)CN(c1cccc(C3([C@H](F)c4nncn4C)COC3)c1)C2=O [Compound 188]               IC50                    13

# evaluate next
Req: Field request: IC50 | item: C[C@@H](N)c1cc2c(c(C(F)(F)F)c1)CN(c1cccc(C3(Cc4nncn4C)CC(F)(F)C3)c1)C2=O [Compound 385]
Resp: 24

----------
# Lookup of reported log10 IC50 keyed by entry
study target: Cbl-b (Homo sapiens (Human), UniProt Q13191)
assay method text: Cbl-b LCK Ub TR-FRET assay (Cbl-b Lck HTRF)
Assay type: biochemical
Where a name gives a salt, the structure may show the parent alone.
A difference of one corresponds to tenfold IC50; all values are log10 with IC50 in nM.

> print(dat)
                                   compound  quantitative.readout
1  Cn1cnnc1[C@@H](F)C1(c2cccc(N3Cc4c(cc(CN5CC6CC5C6)cc4C(F)(F)F)C3=O)c2)COC1                  3.08

Req: Field request: log10 IC50 | item: Cn1cnnc1CC1(c2cccc(N3Cc4c(cc(CN)cc4C(F)(F)F)C3=O)c2)COC1 [Compound 66, formate]
Resp: 1.88

Req: Field request: log10 IC50 | item: Cn1cnnc1CC1(c2cc(OCc3ccccc3)nc(N3Cc4c(cc(CNC5(C)CCC5)cc4C(F)(F)F)C3=O)c2)CCC1
Resp: 1.30

Req: Field request: log10 IC50 | item: Cn1cnnc1[C@H](F)C1(c2cccc(N3Cc4c(cc(CNC5(C)CC5)cc4C(F)(F)F)C3=O)c2)COC1
Resp: 1.08

Req: Field request: log10 IC50 | item: CC(C)[C@@H]1CN(Cc2cc3c(c(C(F)(F)F)c2)CN(c2cccc(C4([C@@H](F)c5nncn5C)COC4)c2)C3=O)CCN1C [Compound 218]
Resp: 1.34

Req: Field request: log10 IC50 | item: CC(C)[C@H]1CN(C)CCN1Cc1cc2c(c(C(F)(F)F)c1)CN(c1cccc(C3(Cc4nncn4C)CCC3)c1)C2=O
Resp: 1.08

Req: Field request: log10 IC50 | item: Cn1cnnc1[C@@H](F)C1(c2cccc(N3Cc4c(cc(CN5CCCC5)cc4C(F)(F)F)C3=O)c2)CC(F)(F)C1
Resp: 2.08
